biological target: UniProt P42866; assay: cell-based; details: pEC50 G protein activation (BRET) mMOR
Sequence (P42866 whole entry): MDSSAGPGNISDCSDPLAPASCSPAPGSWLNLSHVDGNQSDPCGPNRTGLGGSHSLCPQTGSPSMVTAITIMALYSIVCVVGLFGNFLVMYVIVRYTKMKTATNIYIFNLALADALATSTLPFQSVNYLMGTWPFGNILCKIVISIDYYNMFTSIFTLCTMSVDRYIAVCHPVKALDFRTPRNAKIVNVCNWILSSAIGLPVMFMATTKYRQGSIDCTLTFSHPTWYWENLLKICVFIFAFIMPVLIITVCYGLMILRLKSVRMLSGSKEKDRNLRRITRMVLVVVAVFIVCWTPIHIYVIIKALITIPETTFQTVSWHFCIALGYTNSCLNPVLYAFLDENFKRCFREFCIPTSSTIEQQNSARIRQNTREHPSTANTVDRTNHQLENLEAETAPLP
REPORTED_PROPERTY: EC50 (nM)
Quick reminder: number only, in nM, skip the unit.

# compound O=C(N[C@@H]1CC[C@@]2(O)C3Cc4ccc(O)cc4[C@@]2(CCN3CC2CC2)C1)c1cccc(I)c1 [MP1601] ; its EC50 = 2.51

###

molecular target: UniProt:P35372; experiment: cell-based
Sequence (P35372 whole entry): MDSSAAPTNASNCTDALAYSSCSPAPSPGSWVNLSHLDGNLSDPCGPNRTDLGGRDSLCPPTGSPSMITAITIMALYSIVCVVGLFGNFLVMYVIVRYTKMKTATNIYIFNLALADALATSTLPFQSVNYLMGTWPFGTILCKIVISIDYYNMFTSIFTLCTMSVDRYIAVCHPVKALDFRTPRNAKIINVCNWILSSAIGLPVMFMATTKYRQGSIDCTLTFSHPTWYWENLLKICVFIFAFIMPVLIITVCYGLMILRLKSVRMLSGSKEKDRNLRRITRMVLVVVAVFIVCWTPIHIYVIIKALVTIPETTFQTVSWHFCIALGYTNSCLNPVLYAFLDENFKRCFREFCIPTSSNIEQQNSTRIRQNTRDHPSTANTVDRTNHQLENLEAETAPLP
pEC50: −log10 of the molar value.
Binary call on pEC50: True from 8 upward, False beneath that.

Prompt: Form field: pEC50 at least 8? Entry: O=C(NC1C=CC2C3Cc4ccc(O)c5c4C2(CCN3CC2CC2)C1O5)c1cccc(I)c1 (centres unmarked)
Completion: True

Prompt: Decide: pEC50 of `O=C(N[C@@H]1CC[C@@]2(O)C3Cc4ccc(O)cc4[C@@]2(CCN3CC2CC2)C1)c1cccc(I)c1` >= 8?
Completion: True

Prompt: pEC50 >= 8 for O=C(N[C@@H]1CCC2C3Cc4ccc(O)c5c4[C@@]2(CCN3CC2CC2)C1O5)c1cccc(I)c1 (some centres unmarked) ?
Completion: False

###

biological target: KOR (Homo sapiens, UniProt P41145); test: cell-based; conditions: pEC50 cAMP inhibition hKOR, ± SEM
Sequence (P41145 whole entry): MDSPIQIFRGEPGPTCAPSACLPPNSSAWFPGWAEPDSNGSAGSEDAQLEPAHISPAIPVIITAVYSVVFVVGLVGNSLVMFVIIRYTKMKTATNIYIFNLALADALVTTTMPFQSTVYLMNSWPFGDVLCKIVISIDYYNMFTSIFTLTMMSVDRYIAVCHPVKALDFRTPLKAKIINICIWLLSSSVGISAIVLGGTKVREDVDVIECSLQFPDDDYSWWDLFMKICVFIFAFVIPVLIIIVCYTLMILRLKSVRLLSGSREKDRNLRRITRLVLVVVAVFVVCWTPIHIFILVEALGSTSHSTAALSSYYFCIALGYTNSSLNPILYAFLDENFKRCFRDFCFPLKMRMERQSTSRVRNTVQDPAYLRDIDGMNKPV
Provide the recorded pEC50 for the entries that follow.
pEC50 (log units): -log10 of the concentration in mol/L.

// sample NCc1cccc(C(=O)N[C@@H]2CCC3C4Cc5ccc(O)c6c5[C@@]3(CCN4CC3CC3)C2O6)c1 (some centres unmarked) [MP1207] , its pEC50 was 9.98

Just so you know, measured pEC50 for O=C(N[C@@H]1CC[C@@]2(O)C3Cc4ccc(O)cc4[C@@]2(CCN3CC2CC2)C1)c1cccc(I)c1 [MP1601] came out at 9.76

###

Field: Emax. Provide a value for each of the molecules that follow.
biological target: rKOR (Rattus norvegicus); experiment: cell-based; conditions: HEK-293T, read-out: Emax% G protein activation (BRET) rKOR
Sequence (P34975 whole entry): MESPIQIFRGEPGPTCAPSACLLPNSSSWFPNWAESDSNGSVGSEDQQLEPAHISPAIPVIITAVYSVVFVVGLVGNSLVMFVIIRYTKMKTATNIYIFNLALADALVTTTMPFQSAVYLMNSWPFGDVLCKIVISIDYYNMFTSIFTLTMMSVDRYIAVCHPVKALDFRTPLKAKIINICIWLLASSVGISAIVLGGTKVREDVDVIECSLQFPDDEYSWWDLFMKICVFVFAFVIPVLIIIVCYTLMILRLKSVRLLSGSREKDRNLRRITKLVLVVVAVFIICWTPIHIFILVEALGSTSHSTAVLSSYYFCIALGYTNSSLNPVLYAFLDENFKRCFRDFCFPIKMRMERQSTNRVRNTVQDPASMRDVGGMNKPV
State just the number; it will be interpreted in %.

According to the records, this molecule `O=C(N[C@@H]1CC[C@@]2(O)C3Cc4ccc(O)cc4[C@@]2(CCN3CC2CC2)C1)c1cccc(I)c1` displays Emax of 75

For NCc1cccc(C(=O)N[C@@H]2CCC3C4Cc5ccc(O)c6c5[C@@]3(CCN4CC3CC3)C2O6)c1 (stereo partly drawn) the molecule record lists Emax as 32

The reported value for O=C(NC1CCC2(O)C3Cc4ccc(O)c5c4C2(CCN3CC2CC2)C1O5)c1cccc(I)c1 (stereo not drawn) in terms of Emax is 101

###

target: KOR (Homo sapiens); experiment: cell-based; conditions: pEC50 arrestin recruitment (Tango) hKOR, ± SEM
REPORTED_PROPERTY: pEC50
As a rule, pEC50 stands for the negative log10 of the concentration, concentration in M.

Input N=C(N)NCc1cccc(C(=O)N[C@@H]2CCC3C4Cc5ccc(O)c6c5[C@@]3(CCN4CC3CC3)C2O6)c1 (some centres unmarked) [MP1208] . Output pEC50: 7.79

So for NCc1ccc(C(=O)N[C@@H]2CC[C@H]3[C@H]4Cc5ccc(O)c6c5[C@@]3(CCN4CC3CC3)[C@H]2O6)cc1 [MP1209] , the logged pEC50 turned out to be 9.43

###

molecular target: UniProt P32300; assay: cell-based; conditions: EC50 G protein activation (BRET) mDOR
Sequence (P32300 whole entry): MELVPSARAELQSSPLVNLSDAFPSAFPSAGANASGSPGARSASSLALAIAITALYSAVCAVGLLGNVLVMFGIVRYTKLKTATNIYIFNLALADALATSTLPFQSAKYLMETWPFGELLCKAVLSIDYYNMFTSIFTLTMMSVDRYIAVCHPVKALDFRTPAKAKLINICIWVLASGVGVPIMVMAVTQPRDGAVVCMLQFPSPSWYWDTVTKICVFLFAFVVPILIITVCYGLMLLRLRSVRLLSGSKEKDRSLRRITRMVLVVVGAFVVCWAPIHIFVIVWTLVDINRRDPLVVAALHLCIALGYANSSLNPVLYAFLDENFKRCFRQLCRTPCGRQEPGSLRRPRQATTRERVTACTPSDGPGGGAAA
Kindly supply the reported EC50 values for the records listed here.

Let me check: CO[C@@]12CC[C@@H](NC(=O)c3cccc(I)c3)C3Oc4c(O)ccc5c4[C@@]31CCN(CC1CC1)C2C5 (stereo partly drawn) , system UniProt P32300, measured EC50 is 40.4 nM

Case NCc1cccc(C(=O)N[C@@H]2CCC3C4Cc5ccc(O)c6c5[C@@]3(CCN4CC3CC3)C2O6)c1 (stereo partly drawn) , UniProt P32300, EC50 recorded as 116 nM

Value sought: EC50, system UniProt P32300, item O=C(NC1C=CC2C3Cc4ccc(O)c5c4C2(CCN3CC2CC2)C1O5)c1cccc(I)c1 (stereo not drawn) . Result: 1.4 nM
